test system: CCRIS mutagenicity, Ames/micronucleus/aberration tests; test: CCRIS mutagenicity studies; conditions: Test System: AMES SALMONELLA TYPHIMURIUM; Strain/Indicator: TA97; Metabolic Activation: NONE; Method: STANDARD PLATE
Calls of active or inactive are those of the source. How the calls were made is not given here.
Can you answer with just one of these options? 1 (active), -1 (inactive)

# count of solved cases: 8
O=C(c1ccccc1)C(O)c1ccccc1 (centres undefined) ... -1
CN(C)CCCn1cc[n+](C)c1/C=N/O ... -1
CCCCC(CC)COC(=O)c1ccccc1C(=O)OCC(CC)CCCC (centres undefined) ... -1
NN(c1ccccc1)c1ccccc1 ... -1
O=C1OC(O)C(CCl)=C1Cl (centres undefined) ... 1
CCC(CCCC(=O)O)COC(=O)c1ccccc1C(=O)O (centres undefined) ... -1
ClCC1CO1 (centres undefined) ... 1
CCC1(c2ccccc2)C(=O)N=C(O)NC1=O (centres undefined) ... -1

Ask | Recorded call for "Clc1cccnc1Cl" ?
Reply | -1

====

system: CCRIS mutagenicity, Ames/micronucleus/aberration tests; test: CCRIS mutagenicity studies; details: Test System: AMES SALMONELLA TYPHIMURIUM; Strain/Indicator: TA98; Metabolic Activation: RAT LIVER S-9, AROCLOR 1254; Method: STANDARD PLATE
The source made the active and inactive calls. How the calls were made is not given here.
Can you answer with just one of these options? true (active), false (inactive)

# count of solved cases: 3
COC1=CC(=O)c2c(ncc3c2[nH]c2ccncc23)C1=O ... true
C[Si]1(C)O[Si](C)(C)O[Si](C)(C)O[Si](C)(C)O[Si](C)(C)O1 ... false
Cc1cc([N+](=O)[O-])c(C)c2c1[nH]c1ccc([N+](=O)[O-])cc12 ... true

Ask | Recorded call for "CCO[Si](C)(C)OCC" ?
Reply | false

Ask | Recorded call for "COc1cc(S(=O)(=O)O)c(C)cc1N=Nc1c(O)ccc2cc(S(=O)(=O)O)ccc12" ?
Reply | false

Ask | Recorded call for "Cc1cc(C)c(C)cc1C" ?
Reply | false

====

system: CCRIS mutagenicity, Ames/micronucleus/aberration tests; experiment: CCRIS mutagenicity studies; conditions: Test System: AMES SALMONELLA TYPHIMURIUM; Strain/Indicator: TA98; Metabolic Activation: RAT, LIVER, S-9, AROCLOR 1254; Method: PREINCUBATION
Calls of active or inactive are those of the source. How the calls were made is not given here.
Can you answer with just one of these options? yes for active, no for inactive

CCCCOB(OCCCC)OCCCC ... no

Ask | Recorded call for "CC(=O)Nc1ccc(Oc2ccc(N(O)C(C)=O)cc2)cc1" ?
Reply | yes

Ask | Recorded call for "O=C1CCCO1" ?
Reply | no

Ask | Recorded call for "C[C@](N)(Cc1ccc(O)c(O)c1)C(=O)O" ?
Reply | no

Ask | Recorded call for "Nc1nc(N)nc(N)n1" ?
Reply | no

Ask | Recorded call for "Brc1c(Br)c(Br)c(Oc2c(Br)c(Br)c(Br)c(Br)c2Br)c(Br)c1Br" ?
Reply | no

Ask | Recorded call for "Nc1ccc2nc3ccccn3c2n1" ?
Reply | yes

====

system: CCRIS mutagenicity, Ames/micronucleus/aberration tests; test: CCRIS mutagenicity studies; settings: Test System: AMES SALMONELLA TYPHIMURIUM; Strain/Indicator: TA102; Metabolic Activation: RAT, LIVER, S-9, AROCLOR 1254; Method: STANDARD PLATE
Activity calls are given as the source filed them. No rule for the calls is given here.
Can you answer with just one of these options? Yes (active), No (inactive)

# count of solved cases: 6
CCOC(=O)c1[nH]c2ccccc2c1N=Cc1ccc(NC(C)=O)cc1 ... No
C=CCc1ccc(O)c(O)c1 ... No
CCCCOCC=O ... No
ClCc1cccnc1 ... No
ClCc1ccccn1 ... No
COCC(=O)O ... No

Ask | Recorded call for "O=C(O)COc1cc(Cl)c(Cl)cc1Cl" ?
Reply | No

Ask | Recorded call for C[C@@H]1Cc2c(Cl)cc(C(=O)NC(Cc3ccccc3)C(=O)O)c(O)c2C(=O)O1 (stereo partly drawn) ?
Reply | No

Ask | Recorded call for CCC(CCC(C)=O)COC(=O)c1ccccc1C(=O)O (stereo not drawn) ?
Reply | No

Ask | Recorded call for "O=S(=O)(c1cc(Cl)cc(Cl)c1O)c1cc(Cl)cc(Cl)c1O" ?
Reply | No

Ask | Recorded call for "COc1ccc(CN(CCN(C)C)c2ccccn2)cc1" ?
Reply | No

Ask | Recorded call for "Cc1ccc2c(c1)c(C)c1c3ccccc3nc-1n2C" ?
Reply | Yes

Ask | Recorded call for "C[C@@H]1Cc2ccc(C(=O)N[C@@H](Cc3ccccc3)C(=O)O)c(O)c2C(=O)O1" ?
Reply | No

====

tested on: CCRIS mutagenicity, Ames/micronucleus/aberration tests; assay: CCRIS mutagenicity studies; details: Test System: E. COLI; Strain/Indicator: WP2UVRA; Metabolic Activation: RAT, LIVER, S-9, PHENOBARBITAL AND BETA-NAPHTHOFLAVONE; Method: PREINCUBATION
Calls of active or inactive are those of the source. The rule behind the calls is not given here.
Readout label: mutagenic call

Example cases with answers are listed next.
Nc1nc(N)nc(-c2ccccc2)n1 ... inactive; negative
CC(C)O ... inactive; negative
C=CC(=O)NCO ... inactive; negative
CCOC(C)=O ... inactive; negative

// switching to the query compound
Ask | Can you look up the measured mutagenic call of "ClCCOCCCl" for me?
Reply | inactive; negative

====

system: CCRIS mutagenicity, Ames/micronucleus/aberration tests; experiment: CCRIS mutagenicity studies; conditions: Test System: CHINESE HAMSTER V-79; Strain/Indicator: V-79 (HGPRT)/6-THIOGUANINE; Metabolic Activation: NONE
Active and inactive are the calls of the source. No rule for the calls is given here.
Readout label: mutagenic call

C[C@]12CC[C@@H]3c4ccc(O)cc4CC[C@H]3[C@@]13CC[C@]2(O)[C@H](O)C3 ... inactive; negative
CN(Cc1cnc2nc(N)nc(N)c2n1)c1ccc(C(=O)N[C@@H](CCC(=O)O)C(=O)O)cc1 ... inactive; negative
CN(C)c1ccc([C@H]2C[C@]3(C)[C@@H](CC[C@]3(O)CCCO)[C@@H]3CCC4=CC(=O)CCC4=C32)cc1 ... inactive; negative
CC(C)(C)C1=CC(=O)C=CC1=O ... inactive; negative
C[C@]12CCC(=O)C=C1[C@@H]1C[C@@H]1[C@H]1[C@@H]3[C@@H]4C[C@@H]4[C@@]4(CCC(=O)O4)[C@@]3(C)CC[C@@H]12 ... inactive; negative

Ask | Can you look up the measured mutagenic call of "C=CCc1ccc2c(c1)OCO2" for me?
Reply | inactive; negative

Ask | Can you look up the measured mutagenic call of "CCN(CC)c1ccc(N=Nc2c(Cl)cc([N+](=O)[O-])cc2[N+](=O)[O-])cc1" for me?
Reply | inactive; negative

Ask | Can you look up the measured mutagenic call of "O=[C]/C=C\C(=O)CC(=O)CC(=O)O" for me?
Reply | inactive; negative

====

tested on: CCRIS mutagenicity, Ames/micronucleus/aberration tests; assay: CCRIS mutagenicity studies; conditions: Test System: AMES SALMONELLA TYPHIMURIUM; Strain/Indicator: TA100; Metabolic Activation: RAT, LIVER, S-9, AROCLOR 1254; Method: PREINCUBATION
The source made the active and inactive calls. How the calls were made is not given here.
Readout label: mutagenic call

Example cases with answers are listed next.
Cc1c(C)c([N+](=O)[O-])c(C(C)(C)C)c([N+](=O)[O-])c1C ... inactive; negative
Brc1c(Br)c(Br)c(Oc2c(Br)c(Br)c(Br)c(Br)c2Br)c(Br)c1Br ... inactive; negative
Cc1cc(=O)oc2cc(O)cc(O)c12 ... inactive; negative
CCOP(=S)(OCC)Oc1nc(Cl)c(Cl)cc1Cl ... inactive; negative
CN(N=O)c1ccccc1 ... active; positive

// switching to the query molecule
Ask | Can you look up the measured mutagenic call of "Cn1c(N)nc2c3cccnc3ccc21" for me?
Reply | active; positive

====

system: CCRIS mutagenicity, Ames/micronucleus/aberration tests; test: CCRIS mutagenicity studies; conditions: Test System: AMES SALMONELLA TYPHIMURIUM; Strain/Indicator: TA1535; Metabolic Activation: NONE; Method: PREINCUBATION
The source made the active and inactive calls. How the calls were made is not given here.
Can you answer with just one of these options? class 1 = active, class 0 = inactive

# count of solved cases: 6
Nc1nc(N)nc(-c2ccccc2)n1 ... class 0
C=C(C)CCl ... class 0
OCCCCl ... class 0
Clc1c(Cl)c(Cl)c2c(c1Cl)Oc1c(Cl)c(Cl)c(Cl)c(Cl)c1O2 ... class 0
CCOC(C)(C)C ... class 0
COc1ccc(OC)cc1 ... class 0

Ask | Recorded call for "O=c1[nH]c(=O)n([C@H]2C[C@H](O)[C@@H](CO)O2)cc1CCCCl" ?
Reply | class 0

Ask | Recorded call for "CN1C[C@H](C(=O)N[C@]2(C)O[C@@]3(O)[C@@H]4CCCN4C(=O)[C@H](Cc4ccccc4)N3C2=O)C=C2c3cccc4[nH]cc(c34)C[C@H]21" ?
Reply | class 0

Ask | Recorded call for "Clc1ccc(C(c2ccc(Cl)cc2)C(Cl)(Cl)Cl)cc1" ?
Reply | class 0

Ask | Recorded call for "O=C(O)Cc1ccccc1[N+](=O)[O-]" ?
Reply | class 1

Ask | Recorded call for "Cc1c(N=C=O)cccc1N=C=O" ?
Reply | class 0

Ask | Recorded call for "CCCCOB(OCCCC)OCCCC" ?
Reply | class 0

Ask | Recorded call for "CC(=O)/C=C/C1=C(C)CCCC1(C)C" ?
Reply | class 0

Where do the numbers come from? From PubChem BioAssay AID1259407.
